experimentalSystem: T1, recombinant human RANKL (soluble, Gly136-Asp317, N-terminal 10 His, expressed in CHO cells) (human, UniProt O14788 136-317)
T1 sequence: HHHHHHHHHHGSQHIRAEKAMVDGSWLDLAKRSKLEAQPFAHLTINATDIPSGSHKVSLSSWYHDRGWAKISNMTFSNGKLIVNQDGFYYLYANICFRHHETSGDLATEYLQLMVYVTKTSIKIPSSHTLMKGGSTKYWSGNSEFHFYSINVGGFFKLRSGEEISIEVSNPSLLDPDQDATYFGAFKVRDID
protocolNotes: cell-based or functional assay
Measured EC50 value (ng/ml), inhibition of RAW264.7 differentiation accompanies every entry in the list below.
Number only, in ng/mL; omit the unit.

Answered examples (2):
114-2.222 (antibody, V domains shown, Murine monoclonal antibody from hybridoma) VH: EVQLQQSGAELVKPGASVKLSCTTSGFNIKATYIHWVQQRPEQGLEWIGRIDPANGNTKYDSKFQGKATITADTSSNTAYLQLSSLTSEDTAVYFCARSLHYYVFFDYWGQGTTLTVSS VL: DIQMTQTTSSLSASLGDRVTISCSASQGISNYLNWYQQKPDGTVKLLIYSTSSLHSGVPSRFSGSGSGTDYSLTISSLEPEDIATYYCQQYSKLPLTFGAGTKLELKR    311
114-5.9.4 (antibody, V domains shown, Murine monoclonal antibody from hybridoma) VH: EVQLQQSGAELVKPGASVKLSCTASGFNLKGTYIHWVKQRPGQGLEWIGRIDPANANTKYDPKFQGKATIRTDTSSNTAYLQLSSLTSEDTAVYFCSSPSGHYDVWFAYWGQGTLVTVSP VL: DIQMTQPTSSLSASLGDTVTISCSASQDISNYLNWYQQKPDGTLKLLIYYTSSLHSGVPSRFSGSGSGTDYSLTISNLEPEDIATYYCQQFSKLPLTFGAGTKLELKR    340

Entry 114-7.38.48 (antibody, V domains shown, Murine monoclonal antibody from hybridoma) VH: DVQLQESGPDLVKPSQSLSLTCTVTGYSITSAYSWHWIRQFPGNKLEWMGYIHFSGVTNYNPSLKSRISITRDASKNQFFLQLSSVTTEDTATYYCATRRETGFTYWGQGTLVTVSA VL: DIVLTQSPATLSVTPGDSVSLSCRASQSISKNLHWYQQKSHESPRLLIKYASQSISGIPSRFSGSGSGTDFTLSINSVETEDFGIYFCQQINSWPLTFGAGTKLELK , EC50 value (ng/ml), inhibition of RAW264.7 differentiation reported as 585

Data provenance is patent EP3085709A1.
